Data origin, for the record: patent US5250542A

Measured ED50 of individual entries
# assayed system: peripheral opioid receptors (Mus musculus, UniProt P42866)
# Construct: Mice maintained (6 mice/cage) on 0.01M saccharin water with 1 g/1 morphine sulfate; from tissue; host or cells: living morphine-maintained mice (in vivo test; endogenous receptor)
# Sequence (P42866 whole entry): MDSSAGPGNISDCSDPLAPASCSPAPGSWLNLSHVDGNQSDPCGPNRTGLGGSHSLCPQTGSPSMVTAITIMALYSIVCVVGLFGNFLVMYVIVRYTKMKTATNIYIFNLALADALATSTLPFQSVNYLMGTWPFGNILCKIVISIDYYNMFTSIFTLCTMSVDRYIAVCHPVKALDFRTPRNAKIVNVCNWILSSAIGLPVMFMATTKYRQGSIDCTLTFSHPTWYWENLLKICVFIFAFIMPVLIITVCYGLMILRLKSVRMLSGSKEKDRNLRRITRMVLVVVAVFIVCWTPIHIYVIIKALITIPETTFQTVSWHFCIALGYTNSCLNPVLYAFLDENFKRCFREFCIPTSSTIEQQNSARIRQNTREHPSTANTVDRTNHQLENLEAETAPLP
# method notes: precipitated diarrhea in morphine-maintained mice (peripheral opioid activity) and comparison with the writhing test
# Type: in vivo
# assay setup: mouse, 0.5 h, morphine-maintained mice; antagonist subcutaneous or oral; 30 min observation
Structures can show the parent of a compound that is named as a salt.

compound: CCOC(=O)CN(C)C(=O)CNC(=O)C(Cc1ccccc1)CN1CC[C@@](C)(c2cccc(O)c2)[C@@H](C)C1 (relative stereo)
ED50 / mg/kg: 0.073
//
compound: CNC(=O)CCCNC(=O)C(Cc1ccccc1)CN1CC[C@@](C)(c2cccc(O)c2)[C@@H](C)C1 (stereo partly drawn) [Example 62, monohydrochloride monohydrate]
ED50 / mg/kg: 0.15
//
compound: CCNC(=O)CNC(=O)C(CCN1CC[C@@](C)(c2cccc(O)c2)[C@@H](C)C1)c1ccccc1 (relative stereo) [Example 15, monohydrochloride monohydrate]
ED50 / mg/kg: 0.3
